Reported IC50 values for a set of compounds
- Test system: H9c2 cardiomyocytes, 2-deoxyglucose stress, ATP luminescence, 2 h
- measurement_protocol: H9c2 cell survival under 2-deoxyglucose stress – uHTS hits, dose response (AID 588780)
The source made the active and inactive calls.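 Rule for the calls: active = compounds whose fitted half-maximal concentration in the cell-protection dose series is at or below a set limit; inactive = the rest.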

Past entries and their recorded results:
compound	readout_kind	recorded_measurement
COc1cc(-c2cc(C(=O)N3CCN(c4ccccn4)CC3)c3ccccc3n2)cc(OC)c1OC	IC50	14.4 µM
Cc1ccc(C)c(NC(=O)C(Sc2ncnc3ccccc23)c2ccccc2)c1 (stereo not given)	IC50	> 79 µM (inactive)
S=c1[nH]c2ccccc2c2ccccc12	IC50	> 79 µM (inactive)

Identify measured IC50 corresponding to O=C(COC(=O)Cn1[nH]c(=O)c2ccccc2c1=O)NNC(=O)c1ccc(Br)cc1
> 79 µM (inactive)

Look up and report measured IC50 for this entry: COc1ccc(C(=O)Nc2cccc(NC(=O)c3ccc(OC)c(OC)c3)n2)cc1OC
> 79 µM (inactive)

Query IC50 for COC(=O)c1cc(Cl)c(NC(=O)/C=C/c2ccc(OC)c(OC)c2)cc1OC
> 79 µM (inactive)

Note IC50 for the compound shown: COc1ccc(-c2cc(C(=O)N3CCN(c4ccccc4)CC3)c3ccccc3n2)cc1OC
> 79 µM (inactive)

Give the reported IC50 for this compound. Cn1c(=O)[nH]c(=O)c2c1nc(N(CCO)Cc1ccccc1)n2CCCc1ccccc1
> 79 µM (inactive)

Identify measured IC50 associated with COc1cc2c(C#CCCO)c(-c3ccsc3)oc(=O)c2cc1OC
> 79 µM (inactive)

Return the recorded IC50 value; entry: COCCn1nnnc1C(C(C)C)N(Cc1cccnc1)Cc1cc2cc(OC)ccc2[nH]c1=O (stereo not given)
> 79 µM (inactive)

Specify IC50 for CC(OC(=O)c1cc(-c2cccnc2)nc2ccccc12)C(=O)Nc1ccc2ccccc2c1 (stereo not given) and stop.
11 µM

Determine from records and report IC50 for CCOC(=O)N1CCN(C(=O)CSc2nc3ccccc3c(=O)n2-c2ccccc2)CC1
33.6 µM (inactive)

Supply IC50 value. Item: COc1ccc(NC(=O)N(CCCN(C)C)Cc2cc3cc(OC)ccc3[nH]c2=O)cc1
> 79 µM (inactive)

Quickly give me recorded IC50 for COc1cc2c(C#CCCCO)c(-c3ccsc3)oc(=O)c2cc1OC
> 79 µM (inactive)

Provide IC50 value for the following compound: CCOc1ccc2[nH]c(=O)c(CN(CCO)C(c3nnnn3C3CCCCC3)C(C)C)cc2c1 (stereo not given)
> 79 µM (inactive)

Supply reported IC50 belonging to this compound: COc1ccc(C(C(=O)NC2CCCC2)N(C(=O)c2snc(C(N)=O)c2N)c2cccc(O)c2)cc1 (stereo not given)
> 79 µM (inactive)

Identify measured IC50 associated with CCOC(=O)c1[nH]c2cc(OC)c(OC)cc2c1NC(=O)C(C)N1CCN(Cc2ccccc2)CC1 (stereo not given)
> 79 µM (inactive)

---

- Tested on: H9c2 cardiomyocytes, 2-deoxyglucose stress, ATP luminescence, 2 h
- measurement_protocol: H9c2 cell survival under 2-deoxyglucose stress – uHTS hits, dose response (AID 588780)
Activity calls are given as the source filed them.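 The calls were made as follows: active = compounds whose fitted half-maximal concentration in the cell-protection dose series is at or below a set limit; inactive = the rest.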
Choose one outcome from this list and give only that: yes for active, no for inactive

CCOc1ccccc1N1CC(O)=C(c2nc3ccccc3s2)C1=N no

Test call, this compound: CC(C)(C)OC(=O)CNC(=O)c1[nH]cnc1C(=O)Nc1ccc(CNC(=O)OC(C)(C)C)cc1
no

For O=C(CN1CCN(c2ccccn2)CC1)Nc1ccc([N+](=O)[O-])cc1C(=O)Nc1ccccc1F , which call appears in the assay record?
yes

Dear colleague, could you share the recorded outcome for FC(F)(F)c1nnc2ccc(N3CCCC3)nn12 when you have a moment?
no

---

- System: H9c2 cardiomyocytes, 2-deoxyglucose stress, ATP luminescence, 2 h
- measurement_protocol: H9c2 cell survival under 2-deoxyglucose stress – uHTS hits, dose response (AID 588780)
Activity calls are given as the source filed them.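 Rule for the calls: active = compounds whose fitted half-maximal concentration in the cell-protection dose series is at or below a set limit; inactive = the rest.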
Log the outcome using a class from active, inactive

Record excerpt, results attached:
compound	assay_system	label_value
Cc1cnc(NC(=O)CSc2nc3ccccc3c(=O)[nH]2)s1	H9c2 cardiomyocytes, 2-deoxyglucose stress, ATP luminescence, 2 h	inactive
CC(OC(=O)CCc1nc2ccccc2c(=O)[nH]1)C(=O)Nc1ccc2c(c1)OCO2 (stereo not given)	H9c2 cardiomyocytes, 2-deoxyglucose stress, ATP luminescence, 2 h	inactive
Cc1ccccc1C1c2[nH]c3ccccc3c2C[C@H]2C(=O)N(c3ccccc3C(=O)NCCCN3CCOCC3)C(=O)N12 (stereo not given in full)	H9c2 cardiomyocytes, 2-deoxyglucose stress, ATP luminescence, 2 h	active
O=C(NCC(=O)N(Cc1cccs1)C(C(=O)NC1CCCC1)c1ccco1)c1cccs1 (stereo not given)	H9c2 cardiomyocytes, 2-deoxyglucose stress, ATP luminescence, 2 h	active
CC1CCCN(Cc2nc3c(c(=O)n(C)c(=O)n3C)n2CCCc2ccccc2)C1 (stereo not given)	H9c2 cardiomyocytes, 2-deoxyglucose stress, ATP luminescence, 2 h	inactive
C=CCn1cnc2c(c1=O)c1nc3ccccc3nc1n2/N=C/c1cc(OC)c(OC)c(OC)c1	H9c2 cardiomyocytes, 2-deoxyglucose stress, ATP luminescence, 2 h	inactive

API: the following record is the query input.
Please let me know the test result on file for O=C(NNC(=O)C(c1ccccc1)c1ccccc1)c1ccccn1 .
inactive

---

- System: H9c2 cardiomyocytes, 2-deoxyglucose stress, ATP luminescence, 2 h
- measurement_protocol: H9c2 cell survival under 2-deoxyglucose stress – uHTS hits, dose response (AID 588780)
The source made the active and inactive calls.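 How the source made its calls: active means compounds whose fitted half-maximal concentration in the cell-protection dose series is at or below a set limit; inactive means the rest.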
// allowed return values: 1 = active, -1 = inactive

molecule	label_value
C#CCOc1nc(Nc2cccc([N+](=O)[O-])c2)nc(OCC#C)n1	-1
CCCn1c(NC(=O)c2ccccc2)nc2ccccc21	-1
CN(C)C(=O)/C=C\c1cn(-c2ccccc2)nc1-c1ccc2c(c1)OCCO2	-1

What was the test verdict on NC(=O)c1nsc(C(=O)N(CCc2ccccc2)C(C(=O)NC2CCCC2)c2ccco2)c1N (stereo not given) ?
1

Outcome logged for C[C@@H](C(=O)Nc1nc(-c2ccccn2)cs1)N1C(=O)C2CCCCC2C1=O (stereo not given in full) in this assay:
-1

---

- System: H9c2 cardiomyocytes, 2-deoxyglucose stress, ATP luminescence, 2 h
- measurement_protocol: H9c2 cell survival under 2-deoxyglucose stress – uHTS hits, dose response (AID 588780)
The source made the active and inactive calls.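 Rule for the calls: active = compounds whose fitted half-maximal concentration in the cell-protection dose series is at or below a set limit; inactive = the rest.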
Below, each of the compounds is paired with its reported IC50 value.

COc1ccc(S(=O)(=O)N2CCOCC2)cc1NC(=O)c1cccc2c(=O)c(C)c(-c3ccccc3)oc12 18 µM
CC(=O)NCCNc1nc2c(-c3ccccc3)nnn2c2ccccc12 > 79 µM (inactive)
O=C(CCc1nc2ccccc2c(=O)[nH]1)N1CCN(S(=O)(=O)c2ccc(F)cc2)CC1 > 79 µM (inactive)

Tell me measured IC50 for COc1cccc(-c2cnc3c(NC=O)cc(-c4cc(OC)c(OC)c(OC)c4)cn23)c1 please.
> 79 µM (inactive)

Determine from records and report IC50 for CCCNC(=O)c1ccc(N2CCC3(CC2)CC(c2ccccc2)=NO3)c(NC(=O)c2ccco2)c1
> 79 µM (inactive)

---

- Tested on: H9c2 cardiomyocytes, 2-deoxyglucose stress, ATP luminescence, 2 h
- measurement_protocol: H9c2 cell survival under 2-deoxyglucose stress – uHTS hits, dose response (AID 588780)
Calls of active or inactive are those of the source.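 The calls were made as follows: active = compounds whose fitted half-maximal concentration in the cell-protection dose series is at or below a set limit; inactive = the rest.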
readout_kind: IC50

Consider the following illustrative entries.
CCOC(=O)CNS(=O)(=O)c1cc(-c2n[nH]c(=O)c3ccccc23)ccc1C > 79 µM (inactive)
O=C(CCc1nc2ccccc2c(=O)[nH]1)NCc1ccco1 > 79 µM (inactive)
Nc1c(C(=O)N/N=C/c2cccnc2)oc2nc(-c3ccccc3)cc(-c3ccco3)c12 > 79 µM (inactive)
CC(=O)c1cccc(-c2cnc3c(NC=O)cc(-c4ccc(F)cc4)cn23)c1 > 79 µM (inactive)
COc1cc(-n2c(=O)c3ccccc3n(Cc3cc(=O)n4ccccc4n3)c2=O)cc(OC)c1OC > 79 µM (inactive)
CCN1C(=O)/C(=C/c2nc3ccccc3c(=O)n2-c2ccccc2)c2ccccc21 > 79 µM (inactive)
COc1ccc(-c2cc(=O)oc3cc(OC(=O)C4CCCCC4)ccc23)cc1 31.7 µM (inactive)
Cc1ccc(C)c(S(=O)(=O)N(C(=O)c2ccncc2)c2ccc(OC(=O)c3ccncc3)cc2)c1 > 79 µM (inactive)

# input for lookup
Report IC50, nothing else, for this compound: CCOC(=O)N1CCN(C(=O)CSc2nc3c(cnn3-c3ccc(C)cc3)c(=O)[nH]2)CC1
> 79 µM (inactive)

---

- Test system: H9c2 cardiomyocytes, 2-deoxyglucose stress, ATP luminescence, 2 h
- measurement_protocol: H9c2 cell survival under 2-deoxyglucose stress – uHTS hits, dose response (AID 588780)
Calls of active or inactive are those of the source.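 The calls were made as follows: active = compounds whose fitted half-maximal concentration in the cell-protection dose series is at or below a set limit; inactive = the rest.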
readout_kind: IC50

Completed entries (count: 3):
compound	IC50
COc1ccccc1OP(=O)(Nc1cccnc1)Oc1ccccc1OC	> 79 µM (inactive)
Cc1nc2ccccc2c2c(N)c3ccccc3n12	26.5 µM
COc1ccc(C(=O)COC(=O)C(CCCCN2C(=O)C3C4C=CC(C4)C3C2=O)N2C(=O)C3C4C=CC(C4)C3C2=O)cc1 (stereo not given)	13.7 µM

# return recorded IC50 for entry O=C1NC(=O)c2c(Br)c(Br)c(Br)c(Br)c21
> 79 µM (inactive)

Please report the measured IC50 for CN(CC(=O)Nc1ccc(F)cc1)C(=O)CCc1nc2ccccc2c(=O)[nH]1
> 79 µM (inactive)

The origin of these recorded values is PubChem BioAssay AID588780.
